# targetDesc: PYR1 (Arabidopsis thaliana)
# Construct: 6X-His; made in house; host or cells: E. coli BL21[DE3]pLysS
# Sequence (O49686 1-191): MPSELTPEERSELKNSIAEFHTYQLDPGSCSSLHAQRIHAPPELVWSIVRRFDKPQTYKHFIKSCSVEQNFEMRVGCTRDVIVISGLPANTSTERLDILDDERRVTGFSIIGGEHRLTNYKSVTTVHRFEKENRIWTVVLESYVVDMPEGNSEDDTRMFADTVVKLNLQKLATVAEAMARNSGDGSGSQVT
# Sequence (Q9CAJ0 23-511 partner): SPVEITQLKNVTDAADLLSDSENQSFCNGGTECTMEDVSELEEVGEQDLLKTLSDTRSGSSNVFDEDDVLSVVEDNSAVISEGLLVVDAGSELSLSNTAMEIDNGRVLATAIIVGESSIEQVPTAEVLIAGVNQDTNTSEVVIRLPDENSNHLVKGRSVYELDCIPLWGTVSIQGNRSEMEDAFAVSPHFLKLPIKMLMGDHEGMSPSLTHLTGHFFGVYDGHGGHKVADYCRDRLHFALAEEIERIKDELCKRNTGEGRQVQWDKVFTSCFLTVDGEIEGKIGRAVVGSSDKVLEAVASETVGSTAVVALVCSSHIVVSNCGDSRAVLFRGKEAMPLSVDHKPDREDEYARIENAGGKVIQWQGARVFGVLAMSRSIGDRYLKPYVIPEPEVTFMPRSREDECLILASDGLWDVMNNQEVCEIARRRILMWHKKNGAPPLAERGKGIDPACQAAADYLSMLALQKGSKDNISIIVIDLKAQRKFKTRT
# experimentSummary: receptor-mediated PP2C (HAB1) inhibition in vitro assay
# Assay type: biochemical
# measurementSetup: 50 uM of the test compound
measuredAttribute: remaining activity at 50 µM (%)

compound | unitAnnotation | reportedResult
CC1(C)CCC(C(=O)NS(=O)(=O)Cc2ccc(C#N)cc2)(c2ccc(F)cc2)CC1 [Compound 68] | % | 94.4
N#Cc1ccc(CS(=O)(=O)NC(=O)C2(c3ccccc3)CCCCC2)cc1 [Compound 69] | % | 96
N#Cc1ccc(CS(=O)(=O)NC(=O)C2(c3ccsc3)CCCCC2)cc1 [Compound 78] | % | 90.9
O=C(NS(=O)(=O)Cc1ccc(F)cc1)C1(c2ccccc2)CCCCC1 [Compound 64] | % | 98.4
N#Cc1ccc(CS(=O)(=O)NC(=O)C2(c3ccsc3)CCCCC2)cc1Br [Compound 106] | % | 98.9
CC1CCC(C(=O)NS(=O)(=O)Cc2ccc(C#N)cc2)(c2ccc(F)cc2)CC1 (centres unmarked) [Compound 67] | % | 99.6
O=C(NS(=O)(=O)Cc1ccc([N+](=O)[O-])cc1)C1(c2ccccc2)CCCCC1 [Compound 63] | % | 101
N#Cc1ccc(CS(=O)(=O)NC(=O)C2(c3cccs3)CCCCC2)cc1 [Compound 75] | % | 96.1

----------
Attribute: IC50
# targetDesc: PYL3 (Arabidopsis thaliana, UniProt Q9SSM7)
# Construct: 6X-His; made in house; host or cells: E. coli BL21[DE3]pLysS
# Sequence (Q9SSM7 whole entry, one chain of several): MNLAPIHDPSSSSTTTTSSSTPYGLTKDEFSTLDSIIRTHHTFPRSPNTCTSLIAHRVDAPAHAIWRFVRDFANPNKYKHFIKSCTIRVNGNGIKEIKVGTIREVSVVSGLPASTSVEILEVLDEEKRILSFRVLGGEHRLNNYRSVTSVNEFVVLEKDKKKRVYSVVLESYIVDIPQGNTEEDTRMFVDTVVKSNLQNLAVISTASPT
# experimentSummary: receptor-mediated PP2C (HAB1) inhibition in vitro assay
# Format: biochemical
# measurementSetup: Table XII-B; calculated from dose curves; read-out: PP2C Activity (IC50 in uM) PYL3

molecule | IC50
CC1CCC(C(=O)NS(=O)(=O)Cc2ccc(C#N)cc2)(c2ccc(F)cc2)CC1 (stereo not drawn) [Compound 67] | > 50 µM
N#Cc1ccc(CS(=O)(=O)NC(=O)C2(c3ccsc3)CCCCC2)cc1Br [Compound 106] | > 50 µM
CC1(C)CCC(C(=O)NS(=O)(=O)Cc2ccc(C#N)cc2)(c2ccc(F)cc2)CC1 [Compound 68] | > 50 µM
